biological target: Cytochrome P450 2C19 (Homo sapiens) (UniProt P33261); assay: blockers of cytochrome P450 2C19 activity – biochemical, luminescence, ADME assay, primary screen (AID 778); conditions: CYP2C19 Supersomes, luciferin-H EGE luminescence, 30 min; at 5 µM; hits give high values;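 further: plate controls were negative control wells for no effect and 2.5 mM tranylcypromine positive control for full effect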
Sequence (P33261 whole entry, looked up): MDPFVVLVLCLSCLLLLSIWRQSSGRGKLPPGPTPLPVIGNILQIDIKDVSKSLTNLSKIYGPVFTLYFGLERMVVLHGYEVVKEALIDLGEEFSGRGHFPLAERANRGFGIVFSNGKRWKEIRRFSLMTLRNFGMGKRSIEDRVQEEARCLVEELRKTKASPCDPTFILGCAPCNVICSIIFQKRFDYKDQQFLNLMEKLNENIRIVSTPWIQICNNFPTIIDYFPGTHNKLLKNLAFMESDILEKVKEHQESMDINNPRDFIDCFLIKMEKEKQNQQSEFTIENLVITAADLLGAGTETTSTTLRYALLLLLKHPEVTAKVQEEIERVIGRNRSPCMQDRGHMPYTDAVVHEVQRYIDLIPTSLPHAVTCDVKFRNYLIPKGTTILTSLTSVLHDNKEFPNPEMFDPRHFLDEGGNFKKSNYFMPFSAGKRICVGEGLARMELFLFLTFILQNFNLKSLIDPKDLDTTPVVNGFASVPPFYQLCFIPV
The campaign covered roughly 96,000 compounds. About 20,000 (21%) were called active. Only a sample is shown.
Provide the reported inhibition of each item.

Query: Hi! What's the reported inhibition for CCOc1ccccc1N(CC(=O)NC1CCCCC1)C(=O)CCCC(=O)Nc1ccccn1 on Cytochrome P450 2C19 (Homo sapiens) (UniProt P33261)?
Reply: 68.9% (active)

Query: Hi! What's the reported inhibition for Cc1ccc(C(C(=O)NC2CCCC2)N(Cc2ccco2)C(=O)CCC(=O)Nc2ccccn2)cc1 (stereo unspecified) on Cytochrome P450 2C19 (Homo sapiens) (UniProt P33261)?
Reply: 10.6% (inactive)

Query: Hi! What's the reported inhibition for CC1=CC(C)(C)N(C(=O)CSc2nccn2C)c2cc(C)ccc21 on Cytochrome P450 2C19 (Homo sapiens) (UniProt P33261)?
Reply: 82.8% (active)

Query: Hi! What's the reported inhibition for O=C(O)c1cc2ccccc2c(=O)s1 on Cytochrome P450 2C19 (Homo sapiens) (UniProt P33261)?
Reply: 15.6% (inactive)

Query: Hi! What's the reported inhibition for O=C(O)CN1C(=O)CC(Cc2ccccc2)C1=O (stereo unspecified) on Cytochrome P450 2C19 (Homo sapiens) (UniProt P33261)?
Reply: -1% (inactive)

Query: Hi! What's the reported inhibition for CCCC(=O)Nc1cc(OCC)c(NC(=O)NC2CCCCC2)cc1OCC on Cytochrome P450 2C19 (Homo sapiens) (UniProt P33261)?
Reply: 10.5% (inactive)

###

Provide the reported inhibition of each item.
target: Cytochrome P450 2C19 (Homo sapiens); assay: blockers of cytochrome P450 2C19 activity – biochemical, luminescence, ADME assay, primary screen (AID 778); settings: CYP2C19 Supersomes, luciferin-H EGE luminescence, 30 min; at 5 µM; hits give high values;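 further: plate controls were negative control wells for no effect and 2.5 mM tranylcypromine positive control for full effect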
Out of some 96,000 compounds screened, about 20,000 (21%) were called active. A selection follows.
Hi! Could you send only the number? It should be in %, unit omitted.

Query: Need inhibition, item COc1ccc(C(=O)Oc2cc(/C=N/NS(=O)(=O)c3ccc(C)cc3)ccc2OC)cc1
Reply: 4.8

Query: Need inhibition, item CCOc1ccccc1C1CC(c2ccccc2)Nc2nc(N)nn21 (stereo unspecified)
Reply: 44.9

Query: Need inhibition, item N=c1n(Cc2ccc(Cl)cc2)c2ccccc2n1CC(O)c1ccco1 (stereo unspecified)
Reply: 83.1

Query: Need inhibition, item Cc1cc2nnc(SCC(=O)N3CCN(c4ccccc4)CC3)n2c(N)n1
Reply: -9.1

Query: Need inhibition, item Cn1c(=N)n(CC(O)c2ccccc2)c2ccccc21 (stereo unspecified)
Reply: -12.3

Query: Need inhibition, item COC(=O)C1=C(C)N(C)C(C)=C(C(=O)OC)C1c1cccc(Br)c1
Reply: 79.2

Query: Need inhibition, item COC(=O)CN1C(C)=Nc2ccc(Br)cc2C1c1ccccc1 (stereo unspecified)
Reply: 43.4

Query: Need inhibition, item O=C(NC1CCCCC1)c1ccc(CNc2c(N3CCOCC3)c(=O)c2=O)cc1
Reply: 9.7

Query: Need inhibition, item COc1ccc(C2CC(c3ccc(Cl)cc3Cl)Nc3nc(N)nn32)cc1OC (stereo unspecified)
Reply: -12.5

Query: Need inhibition, item CCOc1ccccc1C1CC(c2ccc(Cl)cc2)Nc2nc(N)nn21 (stereo unspecified)
Reply: 90.2

Query: Need inhibition, item COC(=O)c1oc2ccc(Br)cc2c1NC(C)=O
Reply: 14.7
